target: EGFR (Homo sapiens); assay: EGFR Western blot in MCF7; assay type: cell-based; details: Western blot at MTT-IC50, control RQ 4.226
Sequence (P00533 25-1210): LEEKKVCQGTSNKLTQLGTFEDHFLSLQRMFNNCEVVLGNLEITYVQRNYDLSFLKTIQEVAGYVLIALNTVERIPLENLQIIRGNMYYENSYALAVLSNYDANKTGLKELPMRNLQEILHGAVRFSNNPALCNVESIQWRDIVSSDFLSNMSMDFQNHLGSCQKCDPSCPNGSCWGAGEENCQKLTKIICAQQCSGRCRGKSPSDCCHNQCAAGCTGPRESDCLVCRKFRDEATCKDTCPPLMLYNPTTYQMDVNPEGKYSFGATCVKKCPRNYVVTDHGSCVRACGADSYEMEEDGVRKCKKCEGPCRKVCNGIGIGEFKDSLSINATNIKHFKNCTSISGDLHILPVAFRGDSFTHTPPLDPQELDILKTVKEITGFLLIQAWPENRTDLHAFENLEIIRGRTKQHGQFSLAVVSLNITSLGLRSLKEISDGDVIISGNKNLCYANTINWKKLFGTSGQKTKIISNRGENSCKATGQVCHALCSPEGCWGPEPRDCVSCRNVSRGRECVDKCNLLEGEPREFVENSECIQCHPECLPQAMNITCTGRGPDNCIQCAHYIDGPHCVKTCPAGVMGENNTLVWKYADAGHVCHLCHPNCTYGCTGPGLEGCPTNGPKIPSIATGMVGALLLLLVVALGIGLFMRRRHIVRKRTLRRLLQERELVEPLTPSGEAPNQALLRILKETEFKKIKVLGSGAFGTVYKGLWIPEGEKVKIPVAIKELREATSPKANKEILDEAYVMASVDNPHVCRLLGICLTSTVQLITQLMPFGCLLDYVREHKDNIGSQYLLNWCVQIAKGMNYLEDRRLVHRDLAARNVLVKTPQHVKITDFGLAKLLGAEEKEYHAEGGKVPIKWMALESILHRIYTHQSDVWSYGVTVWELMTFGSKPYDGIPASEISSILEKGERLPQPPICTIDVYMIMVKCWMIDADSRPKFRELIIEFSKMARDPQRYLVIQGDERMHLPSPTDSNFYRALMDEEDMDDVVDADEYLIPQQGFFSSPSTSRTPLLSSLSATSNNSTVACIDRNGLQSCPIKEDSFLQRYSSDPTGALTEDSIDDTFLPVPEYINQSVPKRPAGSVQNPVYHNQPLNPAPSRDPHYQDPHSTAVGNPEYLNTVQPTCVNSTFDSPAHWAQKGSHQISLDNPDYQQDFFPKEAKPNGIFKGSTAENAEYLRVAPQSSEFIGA
Property: EGFR MCF7 RQ (relative quantification)
One number for each entry.

Reference set (5 entries):
* COc1ccc(/C=C2\CN(C(=O)c3cc(Cl)ccc3OC(C)=O)C/C(=C\c3ccc(OC)cc3)C2=O)cc1 [Compound 5m] | 1.59
* COc1ccc(/C=C2\CN(C(=O)c3ccccc3OC(C)=O)C/C(=C\c3ccc(OC)cc3)C2=O)cc1 [Compound 5f] | 1
* COc1ccc(/C=C2\CN(C(=O)c3cc(Cl)ccc3OC(C)=O)C/C(=C\c3ccc(OC)c(OC)c3)C2=O)cc1OC [Compound 5n] | 1.825
* COc1cc(/C=C2\CN(C(=O)c3ccccc3OC(C)=O)C/C(=C\c3cc(OC)c(OC)c(OC)c3)C2=O)cc(OC)c1OC [Compound 5h] | 1.737
* CC(=O)Oc1ccccc1C(=O)N1C/C(=C\c2ccc(C)cc2)C(=O)/C(=C/c2ccc(C)cc2)C1 [Compound 5e] | 1.707

Respectfully, I request EGFR MCF7 RQ (relative quantification) for each entry included below.
1. CC(=O)Oc1ccccc1C(=O)N1C/C(=C\c2ccc(F)cc2)C(=O)/C(=C/c2ccc(F)cc2)C1 [Compound 5b]
2. CC(=O)Oc1ccccc1C(=O)N1C/C(=C\c2ccc(Cl)cc2)C(=O)/C(=C/c2ccc(Cl)cc2)C1 [Compound 5c]

Result ::
1. 0.69
2. 0.61

Cited source for all entries: paper PMC8566089
